System: MDA-MB-231 breast
Test: NCI-60 one-dose screen, 48 h (100 = growth as untreated, 0 = no growth, -100 = all killed)
Details: 10 µM unless noted
About 83,000 compounds went through this panel and 20% of them were active in at least one assay; those are over-represented in the sample as a whole. Active and inactive are the calls of the source. The calls were made as follows: active = growth percent below 10; inactive = the rest.
Measured parameter: growth

QUERY: Report growth for CCOC(=O)C1=C(CSC(=S)N(C2CCCCC2)C2CCCCC2)N(C)C(=O)NC1c1ccccc1 (stereo unspecified) please.
RESULT: 62.9% (inactive)

QUERY: Can you check COc1ccc(C(=O)/C=C/c2cc(C(=O)c3cc(OC)c(OC)c(OC)c3)ccc2OC)cc1 next?
RESULT: 51.8% (inactive)

QUERY: Can you check CC(=O)Nc1ccc(S(=O)(=O)N2C(=O)CCC2C(=O)Nc2ccc(Br)cc2)cc1 (stereo unspecified) next?
RESULT: 34.4% (inactive)

QUERY: Can you check CC(CCc1ccccc1)NC(=O)c1n[nH]c(=O)c2ccccc12 (stereo unspecified) next?
RESULT: 101% (inactive)

QUERY: Can you check O=S(=O)(O)CCl next?
RESULT: 108% (inactive)

QUERY: Can you check CCNC(=O)C1CCCN1C(=O)C(CCCN=C(N)N)NC(=O)C(CC(C)C)NC(=O)C(CC(C)C)NC(=O)C(Cc1ccc(O)cc1)NC(=O)C(CO)NC(=O)C(Cc1c[nH]c2ccccc12)NC(=O)C(Cc1cnc[nH]1)NC(=O)C1CCC(=O)N1 (stereo unspecified) next?
RESULT: 112% (inactive)

QUERY: Can you check Cc1ccnc2nc(C(=O)OCC(=O)Nc3ccc(-c4ccccc4)cc3)nn12 next?
RESULT: 104% (inactive)

QUERY: Can you check CC1=C(C#N)C(C)(C)C(C#N)=C(C)N1 next?
RESULT: 104% (inactive)

QUERY: Can you check CCOC(=O)[C@H](CSSc1ncnc2cc[nH]c12)NC(=O)[C@@H](C)c1ccc2cc(OC)ccc2c1 next?
RESULT: 28.2% (inactive)

QUERY: Can you check Cc1ccc2c(c1)C(=O)C(c1c(-c3[nH]c(=O)c4ccc(C)cc4c3O)c(O)c3ccccc3c1O)=NC2=O next?
RESULT: -6.31% (active)

QUERY: Can you check Cc1nc2scc(-c3ccccc3)n2c(=O)c1CCO next?
RESULT: 97.3% (inactive)

QUERY: Can you check COC(=O)CCCCN=Cc1c(O)c(O)c(C(C)C)c2cc(C)c(-c3c(C)cc4c(C(C)C)c(O)c(O)c(C=NCCCCC(=O)OC)c4c3O)c(O)c12 next?
RESULT: 6.38% (active)

QUERY: Can you check COc1ccc(-c2nc3sccn3c2-c2ccnc(NCCCNS(=O)(=O)c3ccc(F)cc3)n2)cc1 next?
RESULT: 43.2% (inactive)

QUERY: Can you check CCCCCCCC/C=C\CCCCCCCCOc1ccccc1CCOP(=O)(O)OCC[N+](C)(C)C next?
RESULT: 73.9% (inactive)

QUERY: Can you check COc1ccc(/C=C/c2cc(N3CCOCC3)c3cc(F)c(F)cc3n2)cc1OC next?
RESULT: 45.9% (inactive)

QUERY: Can you check C#CCC1(c2ccc(F)c(F)c2)NS(=O)(=O)c2ccccc21 (stereo unspecified) next?
RESULT: 109% (inactive)

QUERY: Can you check CC1CCN(C(=O)CSc2nc3sc4c(c3c(=O)[nH]2)CCCC4)CC1 next?
RESULT: 105% (inactive)

QUERY: Can you check COc1cc2nc(Cl)nc(NCCO)c2cc1OC next?
RESULT: 109% (inactive)

QUERY: Can you check O=C(Cc1n[nH]c(=O)c2ccccc12)OCc1c(Cl)cccc1Cl next?
RESULT: 72.9% (inactive)

QUERY: Can you check O=C(OCCCCOC(=O)n1cnc2ccccc21)n1cnc2ccccc21 next?
RESULT: 94.7% (inactive)

QUERY: Can you check Nc1nn2cc(-c3ccc(Cl)s3)nc2c2ccccc12 next?
RESULT: 68.9% (inactive)

QUERY: Can you check O=C(CN1CCN(c2cc3c(cc2F)c(=O)c(C(=O)O)cn3C2CC2)CC1)Nc1ccc(C(=O)/C=C/c2ccc(Cl)cc2)cc1 next?
RESULT: 115% (inactive)

QUERY: Can you check COc1cc(C2C=C(C)N=C3SC=C(C)N32)cc(OC)c1OC (stereo unspecified) next?
RESULT: -23.5% (active)

QUERY: Can you check COc1cc2c(cc1OCCCCn1c(-c3cc(=O)c4ccccc4o3)nc3ccccc31)N=C[C@@H]1CCCN1C2=O next?
RESULT: 87.7% (inactive)

QUERY: Can you check CCCCCCC[C@@H](O)CC(=O)N[C@H](CCCCN)C(=O)N[C@H](Cc1c[nH]c2ccccc12)C(=O)NC(CCCCN)C(=O)N[C@H](CC(C)C)C(=O)N[C@H](Cc1ccccc1)C(=O)N[C@H](CCCCN)C(=O)N[C@H](CCCCN)C(=O)N[C@H](CC(C)C)C(=O)N1CCCC1C(=O)N[C@H](CCCCN)C(=O)N[C@H](Cc1ccccc1)C(=O)N[C@H](CC(C)C)C(=O)N[C@H](Cc1c[nH]cn1)C(=O)N[C@H](CC(C)C)C(=O)N[C@H](C)C(=O)N[C@H](CCCCN)C(=O)N[C@H](CCCCN)C(=O)N[C@H](Cc1ccccc1)C(=O)O (stereo partly specified) next?
RESULT: -71.4% (active)

QUERY: Can you check Nc1nc(-c2ccccc2)cs1 next?
RESULT: 104% (inactive)

QUERY: Can you check CC(Br)C(OC(=O)c1ccccc1Cl)c1cc2c(cc1Br)OCO2 (stereo unspecified) next?
RESULT: 94.3% (inactive)

QUERY: Can you check Oc1ccc(Cl)cc1-c1cc(-c2ccc(Cl)cc2)n[nH]1 next?
RESULT: 37.5% (inactive)

QUERY: Can you check COC1=CC(c2ccc[nH]2)=N/C1=C\c1[nH]c(C)c(C(=O)CCCCC(=O)Nc2ccccc2)c1C next?
RESULT: -10.1% (active)

QUERY: Can you check O=C(O)C(Cc1ccccc1)N1C(=O)/C(=C/C(Cl)=C/c2ccc([N+](=O)[O-])cc2)SC1=S (stereo unspecified) next?
RESULT: 29.5% (inactive)

QUERY: Can you check COc1cccc(/C=C/C(=O)c2sc(Nc3ccc(O)cc3)nc2C)c1 next?
RESULT: 105% (inactive)

QUERY: Can you check COc1ccc2c(c1)C(=O)/C(=C/c1ccc(O)cc1)O2 next?
RESULT: 78.5% (inactive)

QUERY: Can you check CC(C)C(C(=O)CCN(C)C)c1ccc(Cl)cc1 (stereo unspecified) next?
RESULT: 101% (inactive)

QUERY: Can you check C[N+](C)(C)c1ccc(CC2c3ccccc3-c3ccccc32)cc1 next?
RESULT: 74.7% (inactive)

QUERY: Can you check COc1ccc(NC(=O)CSc2nc3ccccc3c(=O)n2Cc2cc(OC)c(OC)c(OC)c2)cc1 next?
RESULT: 73.8% (inactive)

QUERY: Can you check COc1cc(-c2cc(/C=C3\CCCCC3=O)[nH]n2)cc(OC)c1OC next?
RESULT: 94.6% (inactive)
